Molecular target: Acetylcholinesterase (Homo sapiens) (UniProt P22303)
Sequence (P22303 whole entry, looked up): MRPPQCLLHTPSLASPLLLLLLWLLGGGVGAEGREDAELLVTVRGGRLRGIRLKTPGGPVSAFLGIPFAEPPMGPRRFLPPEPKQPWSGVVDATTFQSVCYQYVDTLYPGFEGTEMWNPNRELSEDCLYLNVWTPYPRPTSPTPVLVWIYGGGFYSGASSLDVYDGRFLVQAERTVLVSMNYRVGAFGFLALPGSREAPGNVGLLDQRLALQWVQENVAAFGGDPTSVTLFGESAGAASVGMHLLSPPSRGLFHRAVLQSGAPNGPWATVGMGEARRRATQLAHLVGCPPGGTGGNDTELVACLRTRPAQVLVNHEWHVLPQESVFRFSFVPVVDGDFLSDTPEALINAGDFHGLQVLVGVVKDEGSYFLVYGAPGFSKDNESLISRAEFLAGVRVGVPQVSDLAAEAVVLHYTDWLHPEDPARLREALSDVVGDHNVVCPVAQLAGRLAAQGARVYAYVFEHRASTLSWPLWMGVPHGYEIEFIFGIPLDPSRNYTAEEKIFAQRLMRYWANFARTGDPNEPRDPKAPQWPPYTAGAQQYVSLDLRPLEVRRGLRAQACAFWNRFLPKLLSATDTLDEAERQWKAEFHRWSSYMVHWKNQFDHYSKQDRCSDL
Assay: Acetylcholinesterase (AChE) small molecule antagonists: enzyme-based qHTS assay with human liver microsomes (AID 1347399); note: nearly all actives have a fitted effect of over 60% in size
Conditions: qHTS inhibition; series mostly up to 115 µM
The source made the active and inactive calls. Calls come from the whole dose curve.
Result category, one only: 1.0 (active), 0.0 (inactive)

>>> cat("ClC1=C(Cl)[C@]2(Cl)[C@@H]3[C@@H](Cl)[C@H](Cl)C[C@@H]3[C@@]1(Cl)C2(Cl)Cl")
0.0

Q: GET /call?item= Nc1ccccc1C(=O)OC/C=C/c1ccccc1 returns the recorded outcome of this test.
A: 0.0

Q: For CCOC(=O)C1(c2ccccc2)CCN(CCC(C#N)(c2ccccc2)c2ccccc2)CC1 , what call appears in the results of this test?
A: 0.0

Q: Look up the recorded call for O=C/C(Cl)=C(/Cl)C(=O)O in this test.
A: 0.0

Q: For Oc1ccc(C2(c3ccc(O)cc3)CCCCC2)cc1 , which call appears in the assay record?
A: 0.0

Q: I'd appreciate the recorded outcome for CCOP(=O)(NC(C)C)Oc1ccc(SC)c(C)c1 (centres undefined) from this test.
A: 1.0

Q: Dear all, I need the recorded test outcome for CC(C)CC(C)Nc1ccc(Nc2ccccc2)cc1 (centres undefined) , thank you.
A: 0.0

Q: Give the logged outcome of this assay for the following compound: Oc1ccc(C2(c3ccc(O)cc3)c3ccccc3-c3ccccc32)cc1
A: 0.0

Q: Called result for C[C@]12CC[C@H]3[C@@H](CCC4=CC(=O)CC[C@@]43C)[C@@H]1CC[C@@H]2O
A: 0.0

Q: Please share the test call associated with CCCOCC(=Nc1ccc(Cl)cc1C(F)(F)F)n1ccnc1 .
A: 0.0

Q: I'd appreciate the recorded outcome for COc1ccc(OC)c(C=O)c1 from this test.
A: 0.0

Q: Answer briefly: the call reported for c1ccc2c(c1)[nH]c1cnccc12 in this assay.
A: 0.0

Q: Test call, this compound: Cc1cccc(OP(=O)(Oc2cccc(C)c2)Oc2cccc(C)c2)c1
A: 0.0

Q: Hi, sorry to bother you, what did the test record for C[C@H]1O[C@@H](O[C@H]2[C@@H](O)C[C@H](O[C@H]3[C@@H](O)C[C@H](O[C@H]4CC[C@@]5(C)[C@H](CC[C@@H]6[C@@H]5CC[C@]5(C)[C@@H](C7=CC(=O)OC7)CC[C@]65O)C4)O[C@@H]3C)O[C@@H]2C)C[C@H](O)[C@@H]1O ?
A: 0.0

Q: Please state the recorded outcome for this compound: CC(=O)/C=C/c1ccc2c(c1)OCO2
A: 0.0
